Study target: T1, human CTLA4 (human)
T1 construct: also called hCTLA4; hCTLA4-His-BAP
T1 sequence (chain, as listed by the source limits assumed): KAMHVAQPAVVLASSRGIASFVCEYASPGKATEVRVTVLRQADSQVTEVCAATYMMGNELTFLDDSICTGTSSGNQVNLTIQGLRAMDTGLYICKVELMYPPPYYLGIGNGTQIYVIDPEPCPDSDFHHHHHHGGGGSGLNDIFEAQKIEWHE
Measurement description: SPR Biacore T200, 37C, antibody captured, ATP 10 uM
Assay endpoint: Kd (nM)
Give the value, in units of nM, as a plain number.

Query: Request the reported Kd associated with 04H1637-G1m/04L1594-lam1 (antibody, human IgG1, lambda, V domains shown) VH: QVQLVESGGGLVKPGGSLRLSCAASGFTFSSKTMNWVRQAPGKGLEWVSSISTQSHYIYYAESVRGRFTISRDNAKNSLYLQMNSLRAEDTAVYYCARYGKREDMLWVFDYWGQGTLVTVSS VL: QSALTQPPSASGSPGQSVTISCQGPSTGVGDYNWVHWYQQHPGKAPKLMIYFTSKKPKGVPDRFSGSKSGNTASLTVSGLQAEDEADYYCQTYAAPLGPMFGGGTKLTVLG
Response: 28
